Assay: Protonation constants of the ligands (pH-potentiometry)
Assay type: physicochemical
Conditions: total basicity, 0.15 M NaCl, 25 °C
VALUE KIND: ΣlogKi^H
The response must contain the number and no unit.

Reported ΣlogKi^H ( O=C(CCC(C(=O)O)N1CCN(C(CCC(=O)NCC(O)CO)C(=O)O)Cc2cccc(n2)CN(C(CCC(=O)NCC(O)CO)C(=O)O)CC1)NCC(O)CO (stereo not drawn) [ent‐L2] ) = 22.51

Reported ΣlogKi^H ( O=C(O)CCC(C(=O)O)N1CCN(C(CCC(=O)O)C(=O)O)Cc2cccc(n2)CN(C(CCC(=O)O)C(=O)O)CC1 (racemic) [rac‐L1] ) = 38.11

Reported ΣlogKi^H ( O=C(O)CCC(C(=O)O)N1CCN(C(CCC(=O)O)C(=O)O)Cc2cccc(n2)CN(C(CCC(=O)O)C(=O)O)CC1 (stereo not drawn) [ent‐L1] ) = 38.20

Reported ΣlogKi^H ( O=C(CCC(C(=O)O)N1CCN(C(CCC(=O)NCC(O)CO)C(=O)O)Cc2cccc(n2)CN(C(CCC(=O)NCC(O)CO)C(=O)O)CC1)NCC(O)CO (racemic) [rac‐L2] ) = 22.70
